// provenance: paper PMC11984924

Assign pIC50 to each entry below.
- measured.on: LasB (Pseudomonas aeruginosa, UniProt Q02RJ6)
- Construct: made in house
- Sequence (Q02RJ6 198-498): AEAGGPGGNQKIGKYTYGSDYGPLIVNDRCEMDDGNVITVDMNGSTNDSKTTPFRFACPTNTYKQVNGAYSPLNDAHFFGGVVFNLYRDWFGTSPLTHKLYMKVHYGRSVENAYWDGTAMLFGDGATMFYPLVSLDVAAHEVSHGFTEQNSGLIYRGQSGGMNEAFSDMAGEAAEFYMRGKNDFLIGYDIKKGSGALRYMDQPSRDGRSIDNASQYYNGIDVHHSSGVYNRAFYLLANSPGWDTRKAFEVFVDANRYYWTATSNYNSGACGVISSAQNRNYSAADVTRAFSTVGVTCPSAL
- test.name: In vitro LasB inhibition assay
- Type: biochemical
- experimental.conditions: IC50 LasB inhibition
Answers are plain numbers, as −log10 of the molar value.

> print(dat)
                                   compound  quantity.measured  reported.result
1  CC(C)CC(C(=O)N[C@H](C(=O)Nc1ccc(Cl)c(Cl)c1)C1CC1)P(=O)(O)O (stereo partly drawn)              pIC50             7.54
2  COC[C@H](NC(=O)[C@H](CC(C)C)P(=O)(O)O)C(=O)Nc1ccc(Cl)c(Cl)c1 [(S)‐18]              pIC50             6.71
3  CC(C)C[C@H](C(=O)N[C@H](C(=O)Nc1ccc(-n2ccnc2)cc1)C(C)C)P(=O)(O)O [(R)‐36]              pIC50             7.96
4  CC(C)CC(C(=O)N[C@H](C(=O)Nc1ccc(Cl)cc1)C(C)C)P(=O)(O)O (stereo partly drawn)              pIC50             8.05
5  CC(C)CC(C(=O)N[C@H](C(=O)Nc1ccc(Oc2ccccc2)cc1)C(C)C)P(=O)(O)O (stereo partly drawn)              pIC50             8.10
6  Cc1ccc(NC(=O)[C@@H](NC(=O)C(CC(C)C)P(=O)(O)O)C(C)C)cc1 (stereo partly drawn)              pIC50             7.89

Please go through the list and note pIC50 for each compound.
1. CC(=O)c1ccc(NC(=O)[C@@H](NC(=O)C(CC(C)C)P(=O)(O)O)C(C)C)cc1 (stereo partly drawn)
2. CC(C)CC(C(=O)N[C@H](C(=O)Nc1ccc(N2CCOCC2)cc1)C(C)C)P(=O)(O)O (stereo partly drawn)
3. CC(C)CC(C(=O)N[C@H](C(=O)Nc1ccc(Cl)c(Cl)c1)C1CCCCC1)P(=O)(O)O (stereo partly drawn)

**Result**
1: 8.30; 2: 7.08; 3: 7.91

----------
- test.name: In vivo pharmacokinetic study in CD-1 mice, 30 mg/kg SC
- experimental.conditions: male, CD-1, sc; plasma, mouse, 30 mg/kg subcutaneous
quantity.measured: AUC(0-t)
Answer with the number, then the unit.

**Query** For the molecule CC(=O)c1ccc(NC(=O)[C@@H](NC(=O)C(CC(C)C)P(=O)(O)O)C(C)C)cc1 (stereo partly shown) , what AUC(0-t) is on record?
**Result** 249 µg·h/mL

----------
- Test system: A549 cells
- test.name: Cytotoxicity A549
- Assay type: cell-based
- experimental.conditions: Homo sapiens, A549, read-out: A549 % inhibition at 100 µM (metabolic activity), 48 hours
quantity.measured: inhibition at 100 µM

Please review the following examples before continuing.
> print(dat)
                                   compound  measured.on  reported.result
1  CC(C)CC(C(=O)N[C@H](C(=O)Nc1ccc(Cl)c(Cl)c1)C(C)C)P(=O)(O)O (stereo partly shown)   A549 cells            < 10%
2  CC(=O)c1ccc(NC(=O)[C@@H](NC(=O)C(CC(C)C)P(=O)(O)O)C(C)C)cc1 (stereo partly shown)   A549 cells            < 10%
3  CC(C)C[C@H](C(=O)N[C@H](C(=O)Nc1ccc(-n2ccnc2)cc1)C(C)C)P(=O)(O)O [(R)‐36]   A549 cells            < 10%
4  CC(C)CC(C(=O)N[C@H](C(=O)Nc1ccc(C(=O)C(F)(F)F)cc1)C(C)C)P(=O)(O)O (stereo partly shown)   A549 cells            < 10%
5  CC(C)CC(C(=O)N[C@H](C(=O)Nc1ccc(Cl)c(Cl)c1)C1CCCCC1)P(=O)(O)O (stereo partly shown)   A549 cells            < 10%

Go through the list and state inhibition at 100 µM for each entry.
1. CC(C)CC(C(=O)N[C@H](C(=O)Nc1ccc(Cl)c(Cl)c1)C1CCC1)P(=O)(O)O (stereo partly shown)
2. CC(=O)c1ccc(NC(=O)[C@@H](NC(=O)[C@@H](CC(C)C)P(=O)(O)O)C(C)C)cc1 [(R)‐30]

**Result**
< 10%
< 10%
